Test system: Vero E6 infected with SARS-CoV-2
Experiment: SARS-CoV-2 infection rate relative to infected DMSO; higher = more infection, active = 60 or less
Conditions: 24 h
Record form. Attribute: SARS-CoV-2 infection rate. Fill in for each entry.
Kindly answer with a numeric value in %, unit omitted.

Record CC(C)(O)c1ccn2c(-c3ccc(F)c(-c4ccc(F)cc4C#N)c3)cnc2c1F (10 µM) , field SARS-CoV-2 infection rate: 108

Record CCC(=O)N1CCOc2c(cc(-c3ccc(OC)c(OC)c3)cc2OC[C@H]2CCCN(C)C2)C1 (0.833333 µM) , field SARS-CoV-2 infection rate: 98.5

Record C[C@H]1[C@@H](O)O[C@@H]2O[C@@]3(C)CC[C@H]4[C@H](C)CC[C@@H]1[C@@]24OO3 (10 µM) , field SARS-CoV-2 infection rate: 84

Record NC(=O)CCCCn1ccc(/N=C(\N)NCC(F)(F)F)n1 (10 µM) , field SARS-CoV-2 infection rate: 100

Record Fc1ccc(-n2cc(CCCCN3CCC4(CC3)OCc3ccccc34)c3ccccc32)cc1 [siramesine] (0.833333 µM) , field SARS-CoV-2 infection rate: 94.5

Record COc1ccc2cc(OCC3(C(=O)O)CN(C(=O)c4ccc(F)cc4)C3)ccc2c1 (10 µM) , field SARS-CoV-2 infection rate: 110

Record CN1CCC(NC(=O)c2cc(-c3c(O)cc(O)cc3Oc3ccc([N+](=O)[O-])cc3)on2)CC1 (0.833333 µM) , field SARS-CoV-2 infection rate: 95.5

Record O=C(CCCN1CCC2(CC1)C(=O)N(Cc1cccc(F)c1)CN2c1ccccc1)c1ccc(F)cc1 [3'-fluorobenzylspiperone] (0.833333 µM) , field SARS-CoV-2 infection rate: 103

Record CCCCC/C=C\C/C=C\C/C=C\C/C=C\CCCC(=O)Nc1ccc(O)cc1 (10 µM) , field SARS-CoV-2 infection rate: 106

Record O=C1c2ccccc2S(=O)(=O)N1CCCCN1CCN(c2ncccn2)CC1 [ipsapirone] (10 µM) , field SARS-CoV-2 infection rate: 102

Record CCC(NC(C)C)C(O)c1ccc(O)c(O)c1 (centres undefined) [isoetharine] (10 µM) , field SARS-CoV-2 infection rate: 93

Record O=C(O)CSc1nnc(Br)n1-c1ccc(C2CC2)c2ccccc12 [lesinurad] (10 µM) , field SARS-CoV-2 infection rate: 95

Record CCC(=O)OCC(=O)[C@@]1(OC(=O)CC)[C@@H](C)C[C@H]2[C@@H]3CCC4=CC(=O)C=C[C@]4(C)[C@@]3(F)[C@@H](O)C[C@@]21C (10 µM) , field SARS-CoV-2 infection rate: 104

Record CCN(CCCc1ccccc1)CCCc1ccccc1 [alverine] (10 µM) , field SARS-CoV-2 infection rate: 62

Record CC[C@H]1CN2CC[C@H]1C[C@@H]2[C@@H](O)c1ccnc2ccc(OC)cc12 [hydroquinidine] (10 µM) , field SARS-CoV-2 infection rate: 90

Record COc1nccnc1NS(=O)(=O)c1ccc(N)cc1 [sulfametopyrazine] (10 µM) , field SARS-CoV-2 infection rate: 112

Record CCC[C@@H]1C[C@@H](C(=O)N[C@@H]([C@H]2O[C@H](SC)[C@H](OP(=O)(O)O)[C@@H](O)[C@H]2O)[C@H](C)Cl)N(C)C1 [Clindamycin phosphate] (10 µM) , field SARS-CoV-2 infection rate: 107

Record O=C(NO)C1(CS(=O)(=O)c2ccc(Oc3ccc(Cl)cc3)cc2)CCOCC1 (10 µM) , field SARS-CoV-2 infection rate: 98.5

Record CC(=O)O[C@]1(C(C)=O)CC[C@H]2[C@@H]3CCC4=CC(=O)CC[C@]4(C)[C@H]3CC[C@@]21C [hydroxyprogesterone-acetate] (10 µM) , field SARS-CoV-2 infection rate: 104

Record CCn1ccnc1CC1COc2ccccc2O1 (centres undefined) [imiloxan] (10 µM) , field SARS-CoV-2 infection rate: 99

Record O[C@H]1CC[C@H](Nc2nc(-c3ccccc3)nc3[nH]ccc23)CC1 (10 µM) , field SARS-CoV-2 infection rate: 93

Record CCOc1ccccc1OC(c1ccccc1)C1CNCCO1 (centres undefined) [reboxetine] (10 µM) , field SARS-CoV-2 infection rate: 113

Record CS(=O)(=O)c1ccc(-c2cc(Br)sc2-c2ccc(F)cc2)cc1 (10 µM) , field SARS-CoV-2 infection rate: 104

Record Cc1cnc(C(=O)N[C@H]2CCCCC/C=C\[C@@H]3C[C@@]3(C(=O)NS(=O)(=O)C3CC3)NC(=O)[C@@H]3C[C@@H](Oc4nc5ccccc5c5ccccc45)CN3C2=O)cn1 [paritaprevir] (10 µM) , field SARS-CoV-2 infection rate: 98

###

System: Vero E6 infected with SARS-CoV-2
Assay: inhibition of SARS-CoV-2 cytopathic effect; higher = more antiviral protection, active = above 15
Details: 833.33 nM; 48 h
Observed property: inhibition of SARS-CoV-2 cytopathic effect (%)
Kindly answer with a numeric value in %, unit omitted.

Record FC(F)c1nc2ccccc2n1-c1nc(N2CCOCC2)nc(N2CCOCC2)n1 , field inhibition of SARS-CoV-2 cytopathic effect: -2.96

Record CCCC(=O)C1(c2ccccc2)CCN(C(=O)[C@@H](Cc2ccc(OC)cc2)NC(=O)[C@@H](N)Cc2cncn2C)CC1 , field inhibition of SARS-CoV-2 cytopathic effect: -1.38

Record CCCN1CCO[C@@H]2c3cc(O)ccc3OC[C@H]21 , field inhibition of SARS-CoV-2 cytopathic effect: -0.35

Record CN1CC[C@@H](NC(=O)Nc2ccc(C#N)cc2)C[C@@H]1c1nc2ccccc2[nH]1 , field inhibition of SARS-CoV-2 cytopathic effect: -0.41

Record C[C@@H](CN)CC(=O)O , field inhibition of SARS-CoV-2 cytopathic effect: 1.08

Record FC(F)(F)c1ccc(N2CCNCC2)nc1Cl , field inhibition of SARS-CoV-2 cytopathic effect: 1.94

Record N[C@@H](CS)C(=O)O , field inhibition of SARS-CoV-2 cytopathic effect: -1.16

###

Test system: Vero E6 infected with SARS-CoV-2
Test: inhibition of SARS-CoV-2 cytopathic effect; higher = more antiviral protection, active = above 15
Details: 10000 nM; 48 h
Observed property: inhibition of SARS-CoV-2 cytopathic effect (%)
Kindly answer with a numeric value in %, unit omitted.

Record CC1(C)Oc2ccc(C#N)cc2[C@H](N(Cc2ncc[nH]2)c2ccc(Cl)cc2)[C@H]1O , field inhibition of SARS-CoV-2 cytopathic effect: -1.77

Record Nc1cc(N2CCCCC2)nc(N)[n+]1[O-] [minoxidil] , field inhibition of SARS-CoV-2 cytopathic effect: -0.33

Record Cc1ccccc1CN1C(=O)C2=C(CCN(Cc3ccccc3)C2)N2CCN=C12 , field inhibition of SARS-CoV-2 cytopathic effect: 0.84

Record CC(C)(C)C(=O)CN1C(=O)[C@H](NC(=O)Nc2cccc(C(=O)O)c2)CN(C2CCCCC2)c2ccccc21 [nastorazepide] , field inhibition of SARS-CoV-2 cytopathic effect: -1.1

Record CCc1ccc(C(=O)C(C)CN2CCCCC2)cc1 (centres undefined) [eperisone] , field inhibition of SARS-CoV-2 cytopathic effect: 2.77

Record C=C(c1ccc(C(=O)O)cc1)c1cc2c(cc1C)C(C)(C)CCC2(C)C [bexarotene] , field inhibition of SARS-CoV-2 cytopathic effect: 0.03

Record NC(N)=O [urea] , field inhibition of SARS-CoV-2 cytopathic effect: -3.31

Record C[N+](C)(C)CCOP(=O)(O)OC[C@H](O)CO [choline-alfoscerate] , field inhibition of SARS-CoV-2 cytopathic effect: -2.46

Record CN1CCN(C(c2ccccc2)c2ccc(Cl)cc2)CC1 (centres undefined) [chlorcyclizine] , field inhibition of SARS-CoV-2 cytopathic effect: -10.6

Record CC(C)NCC(O)COc1ccc(COCCOC(C)C)cc1 (centres undefined) [bisoprolol] , field inhibition of SARS-CoV-2 cytopathic effect: -3.25

Record CC[C@H]1CN2CCc3cc(OC)c(OC)cc3[C@@H]2C[C@@H]1C[C@H]1NCCc2cc(OC)c(OC)cc21 [emetine] , field inhibition of SARS-CoV-2 cytopathic effect: -11.1

Record Nc1ccncc1 [dalfampridine] , field inhibition of SARS-CoV-2 cytopathic effect: 1.18

Record CC(C)(C)Sc1c(CC(C)(C)C(=O)O)n(Cc2ccc(Cl)cc2)c2ccc(OCc3ccc4ccccc4n3)cc12 [quiflapon] , field inhibition of SARS-CoV-2 cytopathic effect: 1.66

Record CCOc1ccc(Cc2cc([C@]34OC[C@](CO)(O3)[C@@H](O)[C@H](O)[C@H]4O)ccc2Cl)cc1 [ertugliflozin] , field inhibition of SARS-CoV-2 cytopathic effect: 0.59

Record O=C(O)c1ccccc1S [o-mercapto-benzoic-acid] , field inhibition of SARS-CoV-2 cytopathic effect: -0.55

Record CN(C)[C@@H]1C(O)=C(C(N)=O)C(=O)[C@@]2(O)C(O)=C3C(=O)c4c(O)ccc(Cl)c4[C@@](C)(O)[C@H]3C[C@@H]12 , field inhibition of SARS-CoV-2 cytopathic effect: -0.28

Record CCS(=O)(=O)N(C)[C@H]1c2cc(C#N)ccc2OC(C)(C)[C@@H]1O [chromanol-293B-(-)-[3R,4S]] , field inhibition of SARS-CoV-2 cytopathic effect: -1.64

Record Cc1[nH]c(/C=C2\C(=O)Nc3ccc(F)cc32)c(C)c1C(=O)NCCN1CCCC1 [toceranib] , field inhibition of SARS-CoV-2 cytopathic effect: -7.87

Record Cc1c(C(=O)NC2CCCCC2)sc2nc3ccc(N)cc3n12 , field inhibition of SARS-CoV-2 cytopathic effect: 0.2

Record Brc1c(NC2=NCCN2)ccc2nccnc12 [brimonidine] , field inhibition of SARS-CoV-2 cytopathic effect: 0.94

Record Nc1ncnc2nc(-c3ccc(N4CCOCC4)nc3)cc(-c3cccc(Br)c3)c12 , field inhibition of SARS-CoV-2 cytopathic effect: -1.01

Record COc1cc2c(NC3CCN(CC4CCCCC4)CC3)nc(N3CCCN(C(C)C)CC3)nc2cc1OCCCN1CCCCC1 , field inhibition of SARS-CoV-2 cytopathic effect: -20.7

Record c1cc2c(cc1[C@H]1OC[C@H]3[C@@H]1CO[C@@H]3c1ccc3c(c1)OCO3)OCO2 [sesamin] , field inhibition of SARS-CoV-2 cytopathic effect: -1.08

Record Cc1nccn1CC1CCc2c(c3ccccc3n2C)C1=O (centres undefined) [ondansetron] , field inhibition of SARS-CoV-2 cytopathic effect: 3.44

Reference source for all entries: the supplement of paper PMC13380429
